Each recorded value in this set is attributed to patent US20260184782A1.

experimentalTarget: T1, TIGIT (UniProt Q495A1 22-141, limits assumed)
T1 construct: also called T cell immunoreceptor with Ig and ITIM domains; hTIGIT
T1 sequence (looked up): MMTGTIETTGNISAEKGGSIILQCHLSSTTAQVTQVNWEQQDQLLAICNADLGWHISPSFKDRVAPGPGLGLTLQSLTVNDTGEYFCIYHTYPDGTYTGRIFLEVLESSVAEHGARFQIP
protocolDescription: SPR (Carterra)
Kd values for the binders below.
Give a bare numeral; the unit nM is implied.

TIGIT-211-45 (antibody, V domains shown) VH: EVQLLESGGGLVQPGGSLRLSCAASGFTFRRYVMGWVRQAPGKGLEWVSEISPSGGYTYYADSVKGRFTISRDNSKNTLYLQMNSLRAEDTAVYYCAKRWTFNTAFDYWGQGTLVTVSS VL: DIQMTQSPSSLSASVGDRVTITCRASQSIRRYLNWYQQKPGKAPKLLIYDASNLQSGVPSRFSGSGSGTDFTLTISSLQPEDFATYYCQQSYDFPRTFGQGTKVEIK | 105
TIGIT-211-43 (antibody, V domains shown) VH: EVQLLESGGGLVQPGGSLRLSCAASGFTFYDYTMDWVRQAPGKGLEWVSAISGSGGGTSYADSVKGRFTISRDNSKNTLYLQMNSLRAEDTAVYYCARRHWPGGFDYWGQGTLVTVSS VL: DIQMTQSPSSLSASVGDRVTITCRASQSIRRYLNWYQQKPGKAPKLLIYWASDRESGVPSRFSGSGSGTDFTLTISSLQPEDFATYYCQQSFSTPLTFGQGTKVEIK | 819
TIGIT-211-35 (antibody, V domains shown) VH: EVQLLESGGGLVQPGGSLRLSCAASGFTFNAYPMTWVRQAPGKGLEWVSAITGSGGSTYYADSVKGRFTISRDNSKNTLYLQMNSLRAEDTAVYYCARDGSYSSSWYGYWGQGTLVTVSS VL: DIQMTQSPSSLSASVGDRVTITCSGNKLGDKYASWYQQKPGKAPKLLIYRTSWLQSGVPSRFSGSGSGTDFTLTISSLQPEDFATYYCVARAVRGNPHVLFGQGTKVEIK | 605
TIGIT-211-51 (antibody, V domains shown) VH: EVQLLESGGGLVQPGGSLRLSCAASGFTFHKYGMAWVRQAPGKGLEWVSTISSGGGYTYYPDSVKGRFTISRDNSKNTLYLQMNSLRAEDTAVYYCARDTYLHFDYWGQGTLVTVSS VL: DIQMTQSPSSLSASVGDRVTITCRASQGVRTSLAWYQQKPGKAPKLLIYAKNNRPSGVPSRFSGSGSGTDFTLTISSLQPEDFATYYCQQSYSAPYTFGQGTKVEIK | 96.5

Item TIGIT-211-28 (antibody, V domains shown) VH: EVQLLESGGGLVQPGGSLRLSCAASGFTFSTYAMSWVRQAPGKGLEWVSEISPSGGYTYYADSVKGRFTISRDNSKNTLYLQMNSLRAEDTAVYYCAKVKLGGGPNFDYWGQGTLVTVSS VL: DIQMTQSPSSLSASVGDRVTITCQGASLRNYYASWYQQKPGKAPKLLIYDTSKVASGVPSRFSGSGSGTDFTLTISSLQPEDFATYYCFQGSHIPYTFGQGTKVEIK has what recorded Kd?
63.1

Item TIGIT-211-30 (antibody, V domains shown) VH: EVQLLESGGGLVQPGGSLRLSCAASGFTFKSYGMHWVRQAPGKGLEWVSAISGSGGGTSYADSVKGRFTISRDNSKNTLYLQMNSLRAEDTAVYYCARAGQWLGDFDYWGQGTLVTVSS VL: DIQMTQSPSSLSASVGDRVTITCRASQPIGPDLLWYQQKPGKAPKLLIYRKSNRPSGVPSRFSGSGSGTDFTLTISSLQPEDFATYYCQQSYSTPYTFGQGTKVEIK has what recorded Kd?
2230

Item TIGIT-211-69 (antibody, V domains shown) VH: EVQLLESGGGLVQPGGSLRLSCAASGFTFGNYRMTWVRQAPGKGLEWVGVIWGGGGTYYADSVKGRFTISRDNSKNTLYLQMNSLRAEDTAVYYCARIFSYALDYWGQGTLVTVSS VL: DIQMTQSPSSLSASVGDRVTITCRASQNIRSYLNWYQQKPGKAPKLLIYGASTLQSGVPSRFSGSGSGTDFTLTISSLQPEDFATYYCQQSYENPLTFGQGTKVEIK has what recorded Kd?
3040
